Test: Clearance in Wistar rat at 2 mg/kg, iv
Type: ADME, organism-based
Design: dose 2 mg/kg, route intravenous
Conditions: in vivo
assay_metric: clearance (mL/min/kg)

1) O=C(N[C@@H]1CCC[C@H](O)C1)c1noc(-c2ccc(F)c(F)c2)c1Cl: 13.4

* * *

Test: AUC (0 to infinity) in Wistar rat at 10 mg/kg, po
Type: ADME, organism-based
Parameters: time infinity, dose 10 mg/kg, route oral
Details: plasma
Reported AUC(0-inf) values for the following compounds.
assay_metric: AUC(0-inf) (ng·h/mL)

1) O=C(N[C@@H]1CCC[C@H](O)C1)c1noc(-c2ccc(F)c(F)c2)c1Cl: 3310
2) O=C(N[C@@H]1CCC[C@H](O)C1)c1noc(-c2ccc(C(F)(F)F)cc2)c1Cl: 32400
